Assay: folding enthalpy; higher = less favourable; fluorescence melt of hairpins on a sequencing array, two-state fit
Details: sodium 0.088 M
endpoint label: folding enthalpy (kcal/mol)

GAGGTCCGAAAGGAACTC (((.(((....))).))) ... -40.6
GGACAAGAAATTGTCC ((((((....)))))) ... -37.4
GCTCAGCGAAAGCTCTGC ((..(((....)))..)) ... -13.4
GCACAAGGAAACTCGTGC ((((.((....)).)))) ... -31.4
GTTTCGGGAAACTGAAGC (.(((.(....).))).) ... -11.2
GCGTTGGGACGC ((((....)))) ... -24.9
GTATAACGAAAGTTTAC (((.(((....)))))) ... -16.8
GTACGCGGAAACGCATAC (((.(((....))).))) ... -19.6
GCACCTGGAAACAGATGC (((.(((....))).))) ... -28.4
GCGTAGCGAAAGCAAGGC ((.(.((....)).).)) ... -7.5
GGAGTAACGAAAGTTTCC (((..(((....)))))) ... -16.6
GCGCATGGAAACACGCAC (.((.((....)).)).) ... -13.8
GATCCGCACCGGATC ((((((...)))))) ... -29.4
GGTCGCGAAAGCGATACC ((((((....)))..))) ... -11.3
GTCAACGAAAGTTCAGAC ((((((....)))..))) ... -11.4
GAGCGAGGAAACTTGCTC ((((.((....)).)))) ... -25.1
GCGAGAGGTCGC ((((....)))) ... -8.36

---

Experiment: melting temperature; fluorescence melt of hairpins on a sequencing array, two-state fit, raised by 9.35 °C to match UV melts
Settings: sodium 0.088 M
Mark rule met for Tm under 50 °C, rule not met if at or over.

GAAGGACCGAAAGGTTTC (((..(((....)))))) ... rule met
TTCGAGAAATCGAA (((((....))))) ... rule met
GACTGCGAAAGCATGTC ((((((....))).))) ... rule not met
GTCCAGTCGAAAGACGAC (((..(((....)))))) ... rule met
GGTACCGAAAGGTTGACC ((((((....)))..))) ... rule met
GCGAGTGTCGC ((((...)))) ... rule met
GATCATTGTCATGATC ((((((....)))))) ... rule met
GGATAACGAAAGTTGTCC (((.(((....))).))) ... rule not met
GGCAATACGAAAGTAGCC (((..(((....)))))) ... rule met
GCATCTGGAAACAGGTGC (((.(((....))).))) ... rule not met
GGGCACCGAAAGGTACCC (((.(((....))).))) ... rule not met
GATCCATCCGTGGATC ((((((....)))))) ... rule not met
GGGAGAGGAAACTCTCCC (((((((....))))))) ... rule not met
GTTGTAGGAAACTGCAAC ((((.((....)).)))) ... rule met
GCCTTGCGAAAGCAGCGC ((..(((....)))..)) ... rule not met
CGAGACGGAAACGTTCG (((.(((....)))))) ... rule met
CGTGCCGGAAACGGGACG (((.(((....))).))) ... rule not met
GATGCGGGAAACCGCGTC ((.((((....)))).)) ... rule not met
GACATAGGAAACCATGTC (((((.(....).))))) ... rule met
GAGCACGAAAGTGAACTC ((((((....)))..))) ... rule met
